Tested on: SF-539
Assay: NCI tumour cell line growth inhibition, 48 h
The source made the active and inactive calls. Rule as the data show it: active = GI50 up to about 1.1 µM and inactive = higher.
Labels: active, inactive

* COC(=O)/C=C1\C(=O)N(C(C)=O)c2ccc(Br)cc21 | inactive
* CNC(=S)N/N=C(\C)c1ccc(OC)cc1O | inactive
* CSC(=O)c1sc(SC)[n+](-c2ccccc2)c1O | inactive
* CC(C)=CCN1CC(C)C(=O)Nc2ccccc21 (stereo not given) | inactive
* C/C=C(\NC(=O)C(CCCCN)NC(=O)C(C)NC(=O)C1CSC(C)C(NC(=O)C2CSCC(NC(=O)C(C)NC(=O)C(N)C(C)CC)C(=O)NC(CCCCN)C(=O)NC(Cc3ccccc3)C(=O)NC(CC(C)C)C(=O)N2)C(=O)N2CCCC2C(=O)NCC(=O)N1)C(=O)NCC(=O)NC1CSCC2NC(=O)C(Cc3ccc(O)cc3)NC(=O)C(CSC=CNC2=O)NC(=O)C(CC(N)=O)NC(=O)C(Cc2ccccc2)NC1=O (stereo not given) | inactive
* N#C/C(N)=N/c1ccccc1 | inactive
* O=C(/C=C1\Nc2ccccc2N=C1NC12CC3CC(CC(C3)C1)C2)c1ccc(Br)cc1 | inactive
* Oc1ccc(-c2cc(-c3c(O)cc(O)cc3O)on2)cc1 | inactive
* O=C(/C=C/c1ccccc1)CSc1nc2ccc(I)cc2c(=O)n1Cc1ccccc1 | inactive
* COc1nc(=O)n(COC(CO)CN2C(=O)c3ccccc3C2=O)cc1Cc1cccc(OCc2ccccc2)c1 (stereo not given) | inactive
* O=C1C[C@H](COCc2ccccc2)NC(=O)C[C@H](COCc2ccccc2)NC(=O)C[C@H](COCc2ccccc2)N1 | inactive
* Cc1ccc2[nH]c(Sc3c([N+](=O)[O-])ncn3C)nc2c1 | inactive
* OCC1OC(NO)C(O)C(O)C1O (stereo not given) | inactive
* Nc1nc2c(=O)c3ccccc3sc2s1 | inactive
* COc1cc(C=O)cc(/C=N/c2ccccn2)c1O | inactive
* O=C1Oc2ccccc2C(=O)/C1=C\Nc1nc(-c2ccccc2)cs1 | inactive
* CSCCCNC(=O)c1csc([C@@H](CSC)NC(=O)CCNC(=O)[C@@H](NC(=O)OCC(Br)(Br)Br)C(C)O)n1 (stereo not given in full) | inactive
* CCOC(OCC)N1C(=O)C2(C(OCC)OCC)CC3C(OC(=O)N3N)c3cccc1c32 (stereo not given) | inactive
* O=[N+]([O-])c1cc(C(F)(F)F)ccc1S(=O)(=O)N[C@@H]1CCCC[C@H]1NS(=O)(=O)c1ccc(C(F)(F)F)cc1[N+](=O)[O-] | inactive
* NC(=S)N/N=C1\CCCC1C(O)(C(F)(F)Cl)C(F)(F)Cl (stereo not given) | inactive
* N#C/C(=C\c1ccc(O)c(O)c1)C(N)=S | inactive
* C(=N\N=C1NCCCN1)/c1ccc2ccccc2c1 | inactive
* N#C/C(N)=C(C#N)/N=C/NCc1ccccc1 | inactive
* CC1(C)O[C@@H](CC/C=C/CO)[C@H](CC/C=C/CO)O1 | inactive
* O=C(NCCNCCO)N/N=C/c1ccc(Cl)cc1 | inactive
* COc1ccc(/C=C2\CCNC2=O)cc1 | inactive
* O=C(c1ccc(NCN2C(=O)CCC2=O)cc1)c1ccc(NCN2C(=O)CCC2=O)cc1 | inactive
* CC1CC(c2ccccc2)Nc2nc3ccccc3n21 (stereo not given) | inactive
* Clc1ccc(C(c2ccc(Cl)cc2)c2ccccn2)cc1 | inactive
* CC(=O)OCC1OC(n2c(N)c(C#N)c(-c3cccc(Cl)c3)c(C#N)c2=S)C(OC(C)=O)C(OC(C)=O)C1OC(C)=O (stereo not given) | inactive
* Cc1ccc(-c2nc3n(c2/C=N\N=C(N)N)CCS3)cc1 | inactive
* CCCCCCCCCCCCCP(=O)(OC)OC | inactive
* COC(=O)C1CC2C=CC=CC(=O)C2(C)C1 (stereo not given) | inactive
* O=P(Oc1ccccc1)(Oc1ccccc1)Oc1c[nH]c2ccccc12 | inactive
* C=C=C[P+](c1ccccc1)(c1ccccc1)c1ccccc1 | inactive
* COC1C(O)=C2C(=O)O/C(C)=C/C=C/C=C/C=C\CC(c3ccccc3)NC(=O)\C=C/C=C\C=C\C=C\[C@@]2(C)[C@@H]1O (stereo not given in full) | active
* C=C1CCC[C@@H](C)C(O)[C@@H]2OC(=O)C(=C)[C@@H]2C[C@@H](OC(C)=O)[C@@]2(C)CC[C@@H]1O2 (stereo not given in full) | inactive
* COc1ccc(C2C(C#N)=C(S)N(C3OC(CO)C(O)C(O)C3O)C(c3ccccc3)=C2C(C)=O)cc1 (stereo not given) | inactive
* CCCN/C(N)=N/C#N | inactive
* CC12CC[C@H](O)C(C)(C)[C@H]1CC[C@](C)(O)C2COc1ccc2ccc(=O)oc2c1 (stereo not given in full) | inactive

* * *

Tested on: NCI-H460
Test: NCI tumour cell line growth inhibition, 48 h
The source made the active and inactive calls. Cut-off read from the data, not from the text of the source: active = GI50 up to about 1.1 µM and inactive = higher. Where a SMILES comes first, the peptide text is derived from it. The star is where a group is joined. Boc = CC(C)(C)OC(=O)*
Parameter: GI50. Scope: all listed entries.
OBSERVABLE: GI50

• CCOC(=O)C1(c2ccccc2)CCC(=O)CC1 = > 100 µM (inactive)
• CC1CC(c2ccccc2)Nc2nc3ccccc3n21 (centres undefined) = > 100 µM (inactive)
• CNC(=O)CNC(=O)C(NC(=O)CNC(=O)C1CCCN1C(=O)C(C)NC(=O)C(NC(=O)OC(C)(C)C)C(C)C)C(C)C (centres undefined) (Boc-VAPGVG-NHMe; configuration not given here) = > 100 µM (inactive)
• COC(=O)C/N=C1\NC(=S)N(Cc2ccc(OC)cc2)C12CCCC2 = > 100 µM (inactive)
• O=C(CSc1nnc(-c2ccc(/N=C\c3ccc(Cl)cc3)cc2)o1)Nc1ccccc1Cl = > 100 µM (inactive)
• COc1ccc(C2C(=O)c3ccc(OC)cc3OC2c2cccnc2)cc1 (centres undefined) = > 100 µM (inactive)
• CC[N+](CC)(CC)Cc1cc2ccccc2n1C(=O)OC = > 100 µM (inactive)
• S=c1[nH]nc(Cn2c3ccc(Br)cc3c3nc4ccccc4nc32)o1 = 36.9 µM (inactive)
• CCCc1c(O)c(=O)c2c(OC)cc(OC)c3c4c(OC)cc(OC)c5c(=O)c(O)c(CCC)c(c1c23)c54 = 0.301 µM (active)

* * *

Test system: SK-OV-3
Test: NCI tumour cell line growth inhibition, 48 h
Activity calls are given as the source filed them. Cut-off read from the data, not from the text of the source: active = GI50 up to about 1.1 µM and inactive = higher.
Classes used: active, inactive

- Cc1cccc(/C=N\NC(=S)N2CCCCC2)n1: active
- c1ccc(-c2sc(-c3ccccc3)c3c2C(c2ccccc2)c2c(-c4ccccc4)sc(-c4ccccc4)c2C3c2ccccc2)cc1 (centres undefined): inactive
- CC1(C)O[C@@H](CC/C=C/CO)[C@H](CC/C=C/CO)O1: inactive
- O=C1CCCC(=O)N1CCc1c[nH]c2ccccc12: inactive
- CC(C)=CC[C@H]1C[C@]2(CC=C(C)C)C(=O)[C@@](CC=C(C)C)(C(=O)C(C(=O)c3ccccc3)=C2O)C1(C)C [6-EPI-CLUSIANONE]: inactive
- CCCC/C=C/C/C=C/CCCCCCCCC(=O)OCC1CCCN2CCCCC12 (centres undefined): inactive
- Cc1cccc(C)c1N1C(=O)C(=O)C(c2nc3ccccc3s2)/C(=N/NC(=O)NN)C1=O (centres undefined): inactive
- CCCc1c(O)c(=O)c2c(OC)cc(OC)c3c4c(OC)cc(OC)c5c(=O)c(O)c(CCC)c(c1c23)c54: active
- CN(C(=N)c1ccccc1)c1ccccc1: inactive
- CCCC(=O)C1=C(O)C(Cc2c(O)c(C)c(O)c(C(=O)CCC)c2O)=C(O)C(C)(C)C1=O: inactive
- CN(C)[C@@H]1C(O)=C(C(N)=O)C(=O)[C@@]2(O)C(O)=C3C(=O)c4c(O)cccc4C[C@H]3C[C@@H]12: inactive
- CC(=O)c1cc(CC2Cc3cc4c(cc3C2=O)CCC4)cc2c1CCC2 (centres undefined): inactive
- COc1ccc2c(c1)[n+]([O-])c(-c1ccccc1)c(N)[n+]2[O-]: inactive
- CC12CC(c3ccccc3O1)C(C(=O)Nc1cccc(F)c1)C(=O)N2 (centres undefined): inactive
- N#Cc1cccc(N2C(=O)c3ccc(C(=O)c4ccc5c(c4)C(=O)N(c4cccc(C#N)c4)C5=O)cc3C2=O)c1: inactive
- CCOC(=O)C1(C(=O)OCC)C[C@H](C)[C@](C)(O)C1: inactive
- CC(=O)OCC1OC(n2c(C)c(/N=N/c3ccccc3)c(C)c(C#N)c2=S)C(OC(C)=O)C(OC(C)=O)C1OC(C)=O (centres undefined): inactive
- CCCN/C(N)=N/C#N: inactive
- CC12CC[C@H](O)C(C)(C)[C@H]1CC[C@](C)(O)C2COc1ccc2ccc(=O)oc2c1 (some centres undefined): inactive
